Just for reference, patent US20250304927A1 is where these values come from.

Entries annotated with measured Inhibition
Tested system: T1, evolved variant of mature Streptomyces mobaraensis transglutaminase, including a two amino acid linker and … (Streptomyces mobaraensis, UniProt P81453 79-407)
T1 chain: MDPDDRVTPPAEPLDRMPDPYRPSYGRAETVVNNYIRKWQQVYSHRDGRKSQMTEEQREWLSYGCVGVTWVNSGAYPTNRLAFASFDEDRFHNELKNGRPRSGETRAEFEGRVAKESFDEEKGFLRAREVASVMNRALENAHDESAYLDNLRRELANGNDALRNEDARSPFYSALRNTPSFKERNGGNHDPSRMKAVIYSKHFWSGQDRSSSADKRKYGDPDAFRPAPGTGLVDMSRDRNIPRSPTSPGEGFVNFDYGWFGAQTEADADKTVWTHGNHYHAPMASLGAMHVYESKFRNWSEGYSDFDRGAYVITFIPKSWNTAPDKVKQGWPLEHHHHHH
Test protocol: cell-based or functional assay
Property measured: Inhibition

>  <Binder>
MSNGAGEETKSYAETYRLTATQVANINALNESAPAASSAGPSFRAP [pro-peptide variant D2S, D21T, D22Q (Method B)]

>  <Assay result>
> 1.2 fold

$$$$
>  <Binder>
MINGAGSETKSYAETYRLTAIDVANINALNESAPAASSAGPSFRAP [pro-peptide variant D2I, E7S, D21I (Method B)]

>  <Assay result>
> 1.2 fold

$$$$
>  <Binder>
MINGAGEETKSYAETYRLTADQVANINALNESAPAASSAGPSFRAP [pro-peptide variant D2I, D22Q (Method B)]

>  <Assay result>
> 1.2 fold

$$$$
>  <Binder>
MSNGAGEETKSYAETYRLTADQVANINALNESAPAASSAGPSFRAP [pro-peptide variant D2S, D22Q (Method B)]

>  <Assay result>
> 2 fold

$$$$
>  <Binder>
MSNGAGSETKSYAETYRLTAIDVANINALNESAPAASSAGPSFRAP [pro-peptide variant D2S, E7S, D21I (Method B)]

>  <Assay result>
> 1.2 fold

$$$$
>  <Binder>
MDNGAGSETKSYAETYRLTADQVANINALNESAPAASSAGPSFRAP [pro-peptide variant E7S, D22Q (Method B)]

>  <Assay result>
> 1.2 fold

$$$$
>  <Binder>
MDNGAGEETKSYAETYRLTATQVANINALNESAPAASSAGPSFRAP [pro-peptide variant D21T, D22Q (Method B)]

>  <Assay result>
> 1.2 fold

$$$$
>  <Binder>
MDNGAGSETKSYAETYRLTATDVANINALNESAPAASSAGPSFRAP [pro-peptide variant E7S, D21T (Method B)]

>  <Assay result>
> 1.2 fold

$$$$
>  <Binder>
MDNGAGEETKSYAETYRVTATQVANINALNESAPAASSAGPSFRAP [pro-peptide variant L18V, D21T, D22Q (Method B)]

>  <Assay result>
> 2 fold

$$$$
>  <Binder>
MFNGAGEETKSYAETYRLTADDVANINALNESAPAASSAGPSFRAP [pro-peptide variant D2F (Method B)]

>  <Assay result>
> 1.2 fold

$$$$
>  <Binder>
MDNGAGSETKSYAETYRLTATQVANINALNESAPAASSAGPSFRAP [pro-peptide variant E7S, D21T, D22Q (Method B)]

>  <Assay result>
> 1.2 fold

$$$$
>  <Binder>
MSNGAGEETKSYAETYRVTADQVANINALNESAPAASSAGPSFRAP [pro-peptide variant D2S, L18V, D22Q (Method B)]

>  <Assay result>
> 2 fold

$$$$
